Each entry below carries its recorded inhibition at 10 µM.
target: human indoleamine 2,3-dioxygenase 1 (hIDO1) (Homo sapiens); construct: His tag (N); purchased BPS Bioscience, San Diego, Calif., USA; host or cells: E. coli; experiment: In-vitro human indoleamine 2,3-dioxygenase 1 (IDO1) enzyme assay; assay type: biochemical; conditions: hIDO1 enzyme at 10.0 μM concentration
Sequence (P14902 whole entry): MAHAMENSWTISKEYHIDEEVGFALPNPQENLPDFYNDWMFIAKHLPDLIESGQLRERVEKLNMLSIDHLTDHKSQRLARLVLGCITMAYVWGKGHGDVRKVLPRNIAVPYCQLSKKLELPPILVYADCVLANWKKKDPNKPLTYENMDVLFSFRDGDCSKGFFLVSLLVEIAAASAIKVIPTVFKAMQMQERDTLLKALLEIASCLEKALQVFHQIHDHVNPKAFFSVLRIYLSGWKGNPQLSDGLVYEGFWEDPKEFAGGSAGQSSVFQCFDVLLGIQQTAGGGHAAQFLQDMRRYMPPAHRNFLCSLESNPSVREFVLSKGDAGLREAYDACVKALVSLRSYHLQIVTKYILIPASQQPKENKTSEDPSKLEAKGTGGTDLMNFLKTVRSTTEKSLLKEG

Record excerpt, results attached:
{"COMPOUND": "OC(CC1C(c2ccccc2)=C(c2ccccc2)c2cncn21)C1CCCCC1 (stereo not shown) [Example 103]", "SYSTEM NAME": "human indoleamine 2,3-dioxygenase 1 (hIDO1) (Homo sapiens)", "inhibition at 10 µM": "≤ 50%"}
{"COMPOUND": "COC(=O)c1ccc(C(=O)CC2C(c3ccccc3)=C(C)c3cncn32)cc1 (single isomer, unassigned; isomer-i) [Example 71]", "SYSTEM NAME": "human indoleamine 2,3-dioxygenase 1 (hIDO1) (Homo sapiens)", "inhibition at 10 µM": "≥ 50%"}
{"COMPOUND": "CC1=C(c2ccccc2)C(CC(=O)c2ccc(Oc3ccccc3F)cc2)n2cncc21 (stereo not shown) [Example 76]", "SYSTEM NAME": "human indoleamine 2,3-dioxygenase 1 (hIDO1) (Homo sapiens)", "inhibition at 10 µM": "≥ 50%"}
{"COMPOUND": "CC1=C(c2ccccc2)C(CC(O)C2CCN(S(=O)(=O)C3CCCCC3)CC2)n2cncc21 (stereo not shown) [Example 163]", "SYSTEM NAME": "human indoleamine 2,3-dioxygenase 1 (hIDO1) (Homo sapiens)", "inhibition at 10 µM": "≥ 50%"}
{"COMPOUND": "CC1=C(c2ccccc2)C(CC(O)C2CCN(C(=O)NC3CCCCC3)CC2)n2cncc21 (stereo not shown) [Example 179]", "SYSTEM NAME": "human indoleamine 2,3-dioxygenase 1 (hIDO1) (Homo sapiens)", "inhibition at 10 µM": "≥ 50%"}
{"COMPOUND": "CCOC(=O)N1CCC(C(=O)CC2C(c3ccccc3)=C(C)c3cncn32)CC1 (stereo not shown) [Example 146]", "SYSTEM NAME": "human indoleamine 2,3-dioxygenase 1 (hIDO1) (Homo sapiens)", "inhibition at 10 µM": "≥ 50%"}
{"COMPOUND": "CCCCCCCCC(O)CC1C(c2ccccc2)=C(C)c2cncn21 (stereo not shown) [Compound 171]", "SYSTEM NAME": "human indoleamine 2,3-dioxygenase 1 (hIDO1) (Homo sapiens)", "inhibition at 10 µM": "≥ 50%"}
{"COMPOUND": "OC(CC1C2=C(CCCC2)c2cncn21)c1cccc(OCc2ccccc2)c1 (stereo not shown) [Example 8]", "SYSTEM NAME": "human indoleamine 2,3-dioxygenase 1 (hIDO1) (Homo sapiens)", "inhibition at 10 µM": "≤ 50%"}
{"COMPOUND": "CC1=C(c2ccccc2)C(CC(=O)c2ccc(-c3ccc(F)cc3)cc2)n2cncc21 (stereo not shown) [Example 63]", "SYSTEM NAME": "human indoleamine 2,3-dioxygenase 1 (hIDO1) (Homo sapiens)", "inhibition at 10 µM": "≥ 50%"}
{"COMPOUND": "CC1=C(c2ccccc2)C(CC(=O)c2ccc(-c3ccc(C(F)(F)F)cc3)cc2)n2cncc21 (stereo not shown) [Example 61]", "SYSTEM NAME": "human indoleamine 2,3-dioxygenase 1 (hIDO1) (Homo sapiens)", "inhibition at 10 µM": "≥ 50%"}

# lookup: inhibition at 10 µM of OC(CC1C=C(c2ccccc2)c2cncn21)c1ccccc1 (stereo not shown) [Example 14]
≤ 50%

What value of inhibition at 10 µM has been recorded for this entry: CC1=C(c2ccccc2)C(CC(=O)c2ccc3ccccc3c2)n2cncc21 (stereo not shown) [Example 25]
≥ 50%

# query: inhibition at 10 µM of entry O=C(CC1C(c2ccccc2)=Cc2cncn21)c1ccccc1 (stereo not shown) [Example 169]
≥ 50%

Origin of the recorded values: patent US20190031665A1
